Target: CDK4/Cyclin D3 complex (Homo sapiens, UniProt P11802)
Construct: made in house; host or cells: insect cells co-infected with baculovirus vectors
Sequence (P11802 whole entry): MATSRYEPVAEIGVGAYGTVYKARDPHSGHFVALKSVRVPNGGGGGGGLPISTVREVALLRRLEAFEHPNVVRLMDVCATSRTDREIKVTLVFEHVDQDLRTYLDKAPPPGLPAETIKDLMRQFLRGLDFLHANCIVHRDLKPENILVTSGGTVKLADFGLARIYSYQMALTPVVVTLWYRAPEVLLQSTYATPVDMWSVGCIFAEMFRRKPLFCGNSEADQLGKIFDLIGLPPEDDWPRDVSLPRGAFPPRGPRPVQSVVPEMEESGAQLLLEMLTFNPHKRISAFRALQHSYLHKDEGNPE
Sequence (P30281 whole entry partner): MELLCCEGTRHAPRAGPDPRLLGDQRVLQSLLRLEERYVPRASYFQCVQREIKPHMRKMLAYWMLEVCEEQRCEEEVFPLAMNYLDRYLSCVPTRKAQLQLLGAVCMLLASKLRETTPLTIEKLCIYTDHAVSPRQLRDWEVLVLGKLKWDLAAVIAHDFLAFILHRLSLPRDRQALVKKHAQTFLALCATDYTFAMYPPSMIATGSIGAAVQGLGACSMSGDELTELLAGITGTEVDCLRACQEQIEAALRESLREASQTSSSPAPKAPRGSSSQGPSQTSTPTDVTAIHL
Assay: CDK4/Cyclin D assay
Type: biochemical
Conditions: 1.0 μM; combinatorial library compounds
ASSAY_METRIC: inhibition at 1 µM (%)

CC(C)c1ccc(Nc2nc(N)c(-c3nc(-c4cc(-c5ccc(Cl)c(Cl)c5)no4)cs3)s2)cc1	-26.5

a = CN(C)c1ccc(Nc2nc(N)c(-c3nc(-c4ccc5oc6ccccc6c5c4)cs3)s2)cc1
b = CN(C)c1ccc(Nc2nc(N)c(-c3nc(-c4ccc5c(c4)CCC(=O)N5)cs3)s2)cc1
Lower value for measured inhibition at 1 µM? Options: a , b Please identify the chosen entry by its label. b
(b: 43.7%, a: 63.5%)

1 = CCOC(=O)c1ccccc1-c1csc(-c2sc(Nc3ccc(C(C)C)cc3)nc2N)n1
2 = Cc1cc(-c2csc(-c3sc(Nc4ccc(S(N)(=O)=O)cc4)nc3N)n2)cc(C)c1O
Identify the entry with the larger inhibition at 1 µM. Options: 1 and 2 Choose, then provide that item's label. 1

I = CN(C)c1ccc(Nc2nc(N)c(-c3nc(-c4ccc(CC(=O)O)s4)cs3)s2)cc1
II = CN(C)c1ccc(Nc2nc(N)c(-c3nc(-c4ccc(F)c(F)c4)cs3)s2)cc1
Which one would you say has the larger inhibition at 1 µM value: I , or II ? Choose, then provide that item's label. I

A = Nc1nc(Nc2ccc(S(N)(=O)=O)cc2)sc1-c1nc(-c2cc(Br)c(Cl)s2)cs1
B = N#Cc1ccc(-c2nc(-c3sc(Nc4ccc(S(N)(=O)=O)cc4)nc3N)cs2)cc1
C = CC(C)c1ccc(Nc2nc(N)c(-c3nc(-c4ccc(F)cc4)cs3)s2)cc1
D = CC(C)c1ccc(Nc2nc(N)c(-c3nc(-c4cc5cc(Cl)ccc5o4)cs3)s2)cc1
# ascending order, key=inhibition at 1 µM Write the labels, ordered according to the request. B, D, A, C
(B: 16.3%, D: 33.2%, A: 56.4%, C: 80.7%)

A = Cc1c(C)c(C)c(-c2csc(-c3sc(Nc4ccc(S(N)(=O)=O)cc4)nc3N)n2)c(C)c1C
B = Nc1nc(Nc2ccc(S(N)(=O)=O)cc2)sc1-c1nc(-c2cc3cc(Cl)ccc3o2)cs1
Returns: the label, A or B , whose recorded inhibition at 1 µM is the lower number. Please identify the chosen entry by its label. B
(B: -15%, A: 64.1%)

P = Cc1ccc(-c2csc(-c3sc(Nc4ccc(C(C)C)cc4)nc3N)n2)c(C)c1
Q = Cc1c(-c2csc(-c3sc(Nc4ccc(C(C)C)cc4)nc3N)n2)sc2ccc(Cl)cc12 [drawing 487]
Sorting ascending by inhibition at 1 µM, which comes first: P or Q ? Please indicate the selected item by its label. P
(P: 50%, Q: 79.6%)

a = Nc1nc(Nc2ccc(S(N)(=O)=O)cc2)sc1-c1nc(-c2ccc(F)cc2F)cs1 [drawing 445]
b = Cc1ccc(-c2csc(-c3sc(Nc4ccc(N(C)C)cc4)nc3N)n2)c(C)c1
Determine, for a and b , which has the greater value of inhibition at 1 µM. // respond with label for picked entry a
(a: 58.2%, b: 23.3%)

P = Cc1cc(-c2csc(-c3sc(Nc4ccc(N(C)C)cc4)nc3N)n2)cc(C)c1O
Q = Cc1c(F)cc(-c2csc(-c3sc(Nc4ccc(N(C)C)cc4)nc3N)n2)cc1Cl
R = COc1cccc(-c2csc(-c3sc(Nc4ccc(N(C)C)cc4)nc3N)n2)c1
S = CC1(C)CCC(C)(C)c2cc(-c3csc(-c4sc(Nc5ccc(S(N)(=O)=O)cc5)nc4N)n3)ccc21
T = CC(C)c1ccc(Nc2nc(N)c(-c3nc(-c4ccc(Cl)c(Cl)c4)cs3)s2)cc1
Rank descending by inhibition at 1 µM. Answer with the labels in sequence, matching the requested order. Q, P, S, T, R
(Q: 76.5%, P: 52.4%, S: 31.8%, T: -7.9%, R: -20.3%)

====

Target: unphosphorylated VEGF-R2Δ50 (FLVK) (Homo sapiens, UniProt P35968, DEL940-989/E990V)
Construct: VEGF-R2Δ50 contains residues 806-939 and 990-1171; made in house; host or cells: baculovirus/insect cells
Sequence (P35968 with tags, fused parts or gaps DEL940-989/E990V limits assumed): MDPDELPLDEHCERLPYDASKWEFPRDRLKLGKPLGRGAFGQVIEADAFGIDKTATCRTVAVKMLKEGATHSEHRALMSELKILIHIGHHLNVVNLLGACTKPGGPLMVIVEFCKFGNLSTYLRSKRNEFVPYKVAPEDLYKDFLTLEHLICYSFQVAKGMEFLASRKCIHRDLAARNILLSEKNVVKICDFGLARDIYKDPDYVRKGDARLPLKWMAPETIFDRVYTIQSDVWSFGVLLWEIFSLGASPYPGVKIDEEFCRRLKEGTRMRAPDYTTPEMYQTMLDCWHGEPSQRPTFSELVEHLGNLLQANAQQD
Experiment: VEGF-R2 coupled spectrophotometric assay, unphosphorylated enzyme (FLVK)
Type: biochemical
Settings: Table 3; at 50 nM
ASSAY_METRIC: inhibition at 0.05 µM (%)

Study these solved cases before continuing.
COc1cc(Nc2nc(N)c(-c3nc(-c4cccc(-c5nc(C(C)C)n[nH]5)c4)no3)s2)cc(OC)c1OC	13
COc1cccc(C(=O)Nc2cc(-c3csc(-c4sc(NC(=O)NCc5ccccn5)nc4N)n3)c(F)cc2F)c1	11
COc1cc(Nc2nc(N)c(-c3nc(-c4cccc(-c5nc(C)n[nH]5)c4)no3)s2)cc(OC)c1OC	36
COC(=O)c1cccc(-c2noc(-c3sc(Nc4cc(OC)c(OC)c(OC)c4)nc3N)n2)c1	12
COc1cc(F)c(-c2noc(-c3sc(Nc4cc(OC)c(OC)c(OC)c4)nc3N)n2)cc1N	15

a = Cc1cccc(C(=O)Nc2cccc(-c3noc(-c4sc(NS(C)(=O)=O)nc4N)n3)c2)c1
b = COc1cc(Nc2nc(N)c(-c3nc(-c4cccc(C(=O)O)c4)no3)s2)cc(OC)c1OC
Of the pair a and b , name the member with the lesser recorded inhibition at 0.05 µM. Answer with the label corresponding to your selection. a

====

Target: CDK2/Cyclin A complex (Homo sapiens, UniProt P24941)
Assay: CDK2/Cyclin A assay
Type: biochemical
Conditions: 1.0 μM; combinatorial library compounds
Method: CDK2/Cyclin A Construct for Assay: CDK2 was purified using published methodology (Rosenblatt et al., J. Mol. Biol., 230, 1317-1319 (1993)) from insect cells that had been infected with a baculovirus expression vector. […] Cyclin-dependent kinase activity was measured by quantifying the enzyme-catalyzed, time-dependent incorporation of radioactive phosphate from [^32P]ATP into a recombinant fragment of the retinoblastoma protein. […]
ASSAY_METRIC: inhibition at 1 µM (%)

COc1cc(OC)c(-c2csc(-c3sc(Nc4ccc(S(N)(=O)=O)cc4)nc3N)n2)c(O)c1Cl	69.5
CN(C)c1ccc(Nc2nc(N)c(-c3nc(-c4cc(-c5ccccc5)no4)cs3)s2)cc1	24

P = COc1cc(OC)c(-c2csc(-c3sc(Nc4ccc(N(C)C)cc4)nc3N)n2)c(O)c1Cl
Q = CN(C)c1ccc(Nc2nc(N)c(-c3nc(-c4ccc(OC(=O)c5ccccc5)cc4)cs3)s2)cc1
R = CCOC(=O)c1ccccc1-c1csc(-c2sc(Nc3ccc(S(N)(=O)=O)cc3)nc2N)n1
Hey, can you sort those molecules up there by inhibition at 1 µM, smallest first? Lab note: final answer is the ordered label list. Q, P, R

====

Target: FL-CHK1 (Homo sapiens)
Construct: C-terminally His-tagged full-length human CHK1 (FL-CHK1); 6xHis (C); made in house; host or cells: baculovirus/insect cells
Sequence (O14757 1-476): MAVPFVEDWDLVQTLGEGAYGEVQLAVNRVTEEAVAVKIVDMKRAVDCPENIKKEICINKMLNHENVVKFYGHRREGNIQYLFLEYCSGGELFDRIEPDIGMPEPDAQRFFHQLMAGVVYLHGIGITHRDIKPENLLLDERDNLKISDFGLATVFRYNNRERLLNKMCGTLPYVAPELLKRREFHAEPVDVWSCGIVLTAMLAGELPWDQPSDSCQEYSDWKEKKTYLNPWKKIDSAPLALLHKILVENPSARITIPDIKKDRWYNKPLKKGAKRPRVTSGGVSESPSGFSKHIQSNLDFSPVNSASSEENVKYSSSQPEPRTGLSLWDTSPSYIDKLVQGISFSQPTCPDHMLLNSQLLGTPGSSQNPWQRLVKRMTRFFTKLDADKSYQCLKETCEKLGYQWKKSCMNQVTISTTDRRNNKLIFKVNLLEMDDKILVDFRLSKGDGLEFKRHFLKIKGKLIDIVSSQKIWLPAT
Test: CHK1 assay
Type: biochemical
Set-up: unit not given here
Conditions: Table A combinatorial examples; footnote b not given
ASSAY_METRIC: CHK1^b

COc1cc(Nc2nc(N)c(-c3nc(-c4ccc5c(c4)C(C)(C)CCC5(C)C)cs3)s2)cc2c1OCCO2	22.4

A = COc1cc(Nc2nc(N)c(-c3nc(-c4cc(F)c(C)c(Cl)c4)cs3)s2)cc(OC)c1OC
B = COc1cc(Nc2nc(N)c(-c3nc(-c4cccc([N+](=O)[O-])c4)cs3)s2)cc(OC)c1OC
C = COc1cc(Nc2nc(N)c(-c3nc(-c4cc(-c5ccc(Cl)c(Cl)c5)no4)cs3)s2)cc(OC)c1OC
hey, can you rank those compounds up there by CHK1^b? biggest number first please Ranked list of labels, please, in the requested order. A, B, C

Data provenance: patent US6620828B2
